Target: HERG (human, UniProt Q12809 1-1159)
Sequence (Q12809 whole entry): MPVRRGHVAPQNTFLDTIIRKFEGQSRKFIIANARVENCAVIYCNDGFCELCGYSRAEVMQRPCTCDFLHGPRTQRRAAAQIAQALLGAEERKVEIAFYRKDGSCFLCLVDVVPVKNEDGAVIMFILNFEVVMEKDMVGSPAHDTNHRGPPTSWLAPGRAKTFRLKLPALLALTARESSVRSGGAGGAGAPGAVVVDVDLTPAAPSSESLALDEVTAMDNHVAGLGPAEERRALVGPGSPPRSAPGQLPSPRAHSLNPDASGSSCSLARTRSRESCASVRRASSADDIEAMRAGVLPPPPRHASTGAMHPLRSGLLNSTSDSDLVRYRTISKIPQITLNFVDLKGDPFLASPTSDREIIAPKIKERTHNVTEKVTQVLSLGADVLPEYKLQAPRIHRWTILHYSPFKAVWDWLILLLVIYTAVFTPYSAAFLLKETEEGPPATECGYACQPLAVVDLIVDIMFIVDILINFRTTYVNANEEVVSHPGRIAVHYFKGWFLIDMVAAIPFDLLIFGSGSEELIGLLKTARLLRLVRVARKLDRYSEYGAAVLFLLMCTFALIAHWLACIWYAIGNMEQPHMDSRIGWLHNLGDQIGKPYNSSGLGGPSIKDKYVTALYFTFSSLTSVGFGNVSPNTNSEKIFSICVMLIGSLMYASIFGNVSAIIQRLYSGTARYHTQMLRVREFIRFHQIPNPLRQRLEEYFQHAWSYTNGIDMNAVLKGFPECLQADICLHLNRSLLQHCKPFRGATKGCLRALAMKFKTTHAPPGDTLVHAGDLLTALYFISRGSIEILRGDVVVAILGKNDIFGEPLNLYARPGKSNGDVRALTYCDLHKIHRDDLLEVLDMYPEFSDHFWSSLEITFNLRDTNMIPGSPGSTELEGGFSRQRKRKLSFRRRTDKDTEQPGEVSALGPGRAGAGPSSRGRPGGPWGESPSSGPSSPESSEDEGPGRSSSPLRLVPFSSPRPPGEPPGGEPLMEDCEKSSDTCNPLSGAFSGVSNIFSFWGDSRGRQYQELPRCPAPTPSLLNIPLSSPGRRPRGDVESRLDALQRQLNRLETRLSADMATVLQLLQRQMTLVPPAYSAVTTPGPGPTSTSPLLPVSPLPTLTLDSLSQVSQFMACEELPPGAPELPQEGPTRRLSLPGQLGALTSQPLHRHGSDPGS
Test: cell-based or functional assay
observed-property: deactivation ratio If/(Is + If)
// response body must contain only the number

What does the record list as deactivation ratio If/(Is + If) for T8A-hMiRP1 (other) MSTLSNFAQTLEDVFRRIFITYMDNWRQNTTAEQEALQAKVDAENFYYVILYLMVMIGMFSFIIVAILVSTVKSKRREHSNDPYHQYIVEDWQEKYKSQILNLEESKATIHENIGAAGFKMSP ?
0.83

What does the record list as deactivation ratio If/(Is + If) for M54T-hMiRP1 (other) MSTLSNFTQTLEDVFRRIFITYMDNWRQNTTAEQEALQAKVDAENFYYVILYLTVMIGMFSFIIVAILVSTVKSKRREHSNDPYHQYIVEDWQEKYKSQILNLEESKATIHENIGAAGFKMSP ?
0.81

What does the record list as deactivation ratio If/(Is + If) for wild type human MiRP1 (other) MSTLSNFTQTLEDVFRRIFITYMDNWRQNTTAEQEALQAKVDAENFYYVILYLMVMIGMFSFIIVAILVSTVKSKRREHSNDPYHQYIVEDWQEKYKSQILNLEESKATIHENIGAAGFKMSP ?
0.82

What does the record list as deactivation ratio If/(Is + If) for Q9E-hMiRP1 (other) MSTLSNFTETLEDVFRRIFITYMDNWRQNTTAEQEALQAKVDAENFYYVILYLMVMIGMFSFIIVAILVSTVKSKRREHSNDPYHQYIVEDWQEKYKSQILNLEESKATIHENIGAAGFKMSP ?
0.8
